// endpoint Kd / system human FOLH1 (Homo sapiens (Human))
Kindly answer with a numeric value in nM, unit omitted.

**Q:** Entry CC(=O)NCCOCCOCCOCCC(=O)N[C@@H]1C[C@@H](C(=O)NCC(=O)N[C@@H](Cc2ccc3ccccc3c2)C(=O)NCCCC[C@H](NC(=O)N[C@@H](CCC(=O)O)C(=O)O)C(=O)O)N(C(=O)COc2cc(C#N)cc(C#N)c2)C1 [Compound 90] has what Kd?
**A:** 1.27

**Q:** # Kd lookup, item CC(=O)NCCOCCOCCOCCC(=O)NC[C@H]1CC[C@H](C(=O)N[C@@H](Cc2ccc(OCc3ccccc3)cc2)C(=O)NCCCC[C@H](NC(=O)N[C@@H](CCC(=O)O)C(=O)O)C(=O)O)CC1 [Compound 16]
**A:** 7.73

**Q:** I would be grateful if you could share the reported Kd for CC(=O)NCCOCCOCCOCCC(=O)NC[C@H]1CC[C@H](C(=O)N[C@@H](Cc2ccc3ccccc3c2)C(=O)NCCCC[C@H](NC(=O)N[C@@H](Cc2ccco2)C(=O)O)C(=O)O)CC1 [Compound 49] .
**A:** 3080

**Q:** For the compound shown here, C=CC[C@H](NC(=O)CCOCCOCCOCCNC(C)=O)C(=O)NC[C@H]1CC[C@H](C(=O)N[C@@H](Cc2ccc3ccccc3c2)C(=O)NCCCC[C@H](NC(=O)N[C@@H](CCC(=O)O)C(=O)O)C(=O)O)CC1 [Compound 41] , give the reported Kd.
**A:** 1.95

**Q:** If you can, please state the reported Kd value of CC(=O)NCCOCCOCCOCCC(=O)NC[C@H]1CC[C@H](C(=O)N[C@@H](Cc2ccc3ccccc3c2)C(=O)NCCCC[C@H](NC(=O)N[C@@H](CCC(=O)O)C(=O)O)C(=O)O)CC1 [Compound 8] .
**A:** 0.654

###

target: Recombinant Human PSMA/FOLH1 Protein (Homo sapiens (Human), UniProt Q04609); assay: Inhibition assay (Amplex Red glutamic acid/glutamate oxidase, NAAG substrate); settings: Target PSMA; average of N replicates; PSMA 5 nM, NAAG 40 μM
Sequence (Q04609 whole entry): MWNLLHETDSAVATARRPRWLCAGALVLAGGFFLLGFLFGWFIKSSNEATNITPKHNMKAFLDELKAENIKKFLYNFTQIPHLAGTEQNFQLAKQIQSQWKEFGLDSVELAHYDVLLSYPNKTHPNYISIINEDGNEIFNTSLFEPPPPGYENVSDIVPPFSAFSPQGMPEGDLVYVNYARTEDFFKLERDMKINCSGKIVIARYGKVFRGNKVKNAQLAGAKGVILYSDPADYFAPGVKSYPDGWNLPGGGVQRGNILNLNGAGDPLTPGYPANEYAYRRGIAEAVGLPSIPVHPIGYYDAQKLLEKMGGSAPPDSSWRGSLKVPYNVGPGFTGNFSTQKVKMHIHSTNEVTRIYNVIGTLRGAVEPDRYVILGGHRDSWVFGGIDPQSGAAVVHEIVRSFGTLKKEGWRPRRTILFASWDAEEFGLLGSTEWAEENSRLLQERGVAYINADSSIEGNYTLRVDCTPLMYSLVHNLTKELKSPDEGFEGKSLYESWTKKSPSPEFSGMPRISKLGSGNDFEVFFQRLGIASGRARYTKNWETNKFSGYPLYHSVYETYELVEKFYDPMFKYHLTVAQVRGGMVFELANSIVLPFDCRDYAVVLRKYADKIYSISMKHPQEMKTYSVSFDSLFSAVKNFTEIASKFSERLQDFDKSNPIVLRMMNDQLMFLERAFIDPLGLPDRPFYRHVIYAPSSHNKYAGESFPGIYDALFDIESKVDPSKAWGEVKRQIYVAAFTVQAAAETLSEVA
pIC50: −log10 of the molar value.
Answer NO if pIC50 is under 7, and YES if it is 7 or more.

**Q:** Has CC(=O)NCCOCCOCCOCCC(=O)N[C@@H](Cc1ccc(C(=O)O)cc1)C(=O)NCCCC(=O)N[C@@H](Cc1ccc2ccccc2c1)C(=O)NCCCC[C@H](NC(=O)N[C@@H](CCC(=O)O)C(=O)O)C(=O)O [Compound 97] a recorded pIC50 greater than or equal to 7?
**A:** YES

**Q:** Threshold query (pIC50 >= 7) on CC(=O)NCCOCCOCCOCCC(=O)NC[C@H]1CC[C@H](C(=O)N[C@@H](Cc2ccc(-c3ccccc3)cc2)C(=O)NCCCC[C@H](NC(=O)N[C@@H](CCC(=O)O)C(=O)O)C(=O)O)CC1 [Compound 7]
**A:** NO

**Q:** Could you tell me if the measured pIC50 of CC(=O)NCCOCCOCCOCCC(=O)NC[C@H]1CC[C@H](C(=O)N[C@@H](Cc2ccc3ccccc3c2)C(=O)NCCCC[C@H](NC(=O)N[C@@H](Cc2ccc(O)cc2)C(=O)O)C(=O)O)CC1 [Compound 25] reaches 7 or more?
**A:** NO

**Q:** Reported pIC50 reaches at least 7 for CC(=O)NCCOCCOCCOCCC(=O)NC[C@H]1CC[C@H](C(=O)N[C@@H](Cc2cn(C)cn2)C(=O)NCCCC[C@H](NC(=O)N[C@@H](CCC(=O)O)C(=O)O)C(=O)O)CC1 [Compound 11] ?
**A:** NO

**Q:** Is reported pIC50 greater than or equal to 7 here: CC(=O)NCCOCCOCCOCCC(=O)NC[C@H]1CC[C@H](C(=O)N[C@@H](Cc2cscn2)C(=O)NCCCC[C@H](NC(=O)N[C@@H](CCC(=O)O)C(=O)O)C(=O)O)CC1 [Compound 45]
**A:** NO

**Q:** Textbook exercise: given the entry C#CC[C@H](NC(=O)N[C@@H](CCCCNC(=O)[C@H](Cc1ccc2ccccc2c1)NC(=O)[C@H]1CC[C@H](CNC(=O)CCOCCOCCOCCNC(C)=O)CC1)C(=O)O)C(=O)O [Compound 50] , state whether its pIC50 is greater than or equal to 7.
**A:** NO

**Q:** Has CC(=O)NCCOCCOCCOCCC(=O)NC[C@H]1CC[C@H](C(=O)N[C@@H](Cc2c[nH]c3ccccc23)C(=O)NCCCC[C@H](NC(=O)N[C@@H](CCC(=O)O)C(=O)O)C(=O)O)CC1 (stereo in doubt) [Compound 2] a recorded pIC50 greater than or equal to 7?
**A:** YES
